Assay Notes: yeast display, Sf9 membrane polyspecificity reagent, FACS + sequencing; frameworks hold sequencing errors
Parameter: polyreactivity (PSR sort gate)

Seq Text | Result
QVQLVESGGGLVQAGGSLRLSCAASGHTFRYYAMGWYRQAPGKERELVAAITGGGGSTYYADSVKGRFTISRDNAKNTVYLQMNSLKPEDTAVYYFATGGVSGIVGGDYWGQGTQVTVSS | low polyreactivity
QVQLVESGGGLVQAGGSLRLSCAASGFIFSSYAMGWYRQAPGKERELVAAISRSGGRTNYADSVKGRFTISRDNAKNTVYLQMNSLKPEDTAVYYCAAGRWWVYRYARYYYWGQGTQVTVSS | high polyreactivity
QVQLVESGGGLGQAGGSLRLSCAASGLIIQPNAMGWYSPAPGKERELVAAISSSDGSTYYADSVKGRFTISRDNAKNTVYLQMNSLKREDSAVYYCAAGYYFQVEPDLVYIYSYEYWGQGTHVTVSS | low polyreactivity
QVQLVESGGGLVQAGGSLSLSCAASGLTFTGNAMGWYRQAPGKERELVAAISWSGGSTYYADSVKGRYTISRDNAKNTVYLQMNSLKPEDTAVYYCGDPDSRYDYWGQGTQVTVSS | high polyreactivity

Supply measured polyreactivity (PSR sort gate) of QVQLVESGGGLVQAGGSLRLSCAASGSIFVLNAMGWYRQAPGKERELVAAITGTGDRTYYADSVKGRFTISRDNAKNTVYLQMNSLKPEDTAVYYCAATVGDAYYEYDYWGQGTQVTVSS in your reply.
low polyreactivity

Supply measured polyreactivity (PSR sort gate) of QVQLVESGGGLVQAGGSLRLSSAASGFTFSHYAMGWYRQAPGKERELVAAITWSGGSTYYADSVKGRFTISRDNAKNTVYLQINSLKPEDTAVYYCAAESYLDGGEYWGQGTQVTVSS in your reply.
high polyreactivity

Supply measured polyreactivity (PSR sort gate) of QDQLVESGGGLVQAGGSLRLSCAASGRTLVHYGMGRYRQAPRKERELVAVITSGGSTYYADSVKARFTISRDNAKNTVYLQMNSLKPEDTAVYYCAAYKERFYEEYGYWGQGTQLTVSS in your reply.
low polyreactivity

Supply measured polyreactivity (PSR sort gate) of QVQLVESGRGLVQAGGSLRLSCAASGSTFRGNAMGWYRQAPGKERELVAAISVTGGSTYYADSVKVRFTISRDNAKNTVYLQMNSLKPEDTAVYYCADRVQRGQYSFVRDYYYWGQGTQVTVSS in your reply.
high polyreactivity

Supply measured polyreactivity (PSR sort gate) of QVQLVESGGGLVQAGGSLRLSCAASGSIFFDNAMGWYRQAPGKERELVATINSGGNTHYADSVKGRFTISRDNAKNTVYLQMNSLKPEDTAVYYCAADFPSDLVDGYNYWGQGTQVTVSS in your reply.
low polyreactivity

Supply measured polyreactivity (PSR sort gate) of QVQLVESGGGLVQAGGSLRLSCAASGSTFHRNGMGWYRQAPGKERELVAAISRTGGSTYYADSEKGRFTISRDNAKNTVYLQMNSLKPEDTAVYYCAAQGNNYVRHTYGYWGQGTQVTVSS in your reply.
low polyreactivity

Supply measured polyreactivity (PSR sort gate) of QVQLVESGGGLVQAGGSLRLSCAASGSTFYDYAMGWYRQAPGTEREFVAAISGSAGSTYYADSVKGRFTISRDNAKNTVYLQMNSLKPEDTAVYYCATDYGWEDYNYWGQGTQVTVSS in your reply.
low polyreactivity
